- Tested On: erythrocytes infected with P. falciparum field isolate 9106
- Assay Overview: flow cytometry, staining of IEs
Collected % parasite recognition values appear next to each entry.
Report the figure along with its unit, number first.

Exercise: // lookup % parasite recognition for MGC1 (antibody) VH: EVQLVESGGGLVQPGGSLRLSCVASGFNFRKSWMGWVRQAPGKGLEWVANIREDGSESFYADSVKGRFTVSRDNAKKSLYLHINSLRAEDTAVYYCARDRFCNDDEIHRHGQEDLPRPSISAAEGTVIPLGSHVTFVCRGPVGVQTFRLEKDSRSIYNDTENVSQPSPSESEARFRIDSVSEGNAGLYRCVYYKAPKWSAQSDYLELLVKGQEVTWALFTSCGGDGEEPDYDMDVRGKGTTVTVSS VL: DIVMTQSPDSLAVSLGERATINCKSSQSVLYRSKNKNYLAWFQQKPGQPPKVLIYSTSTRASGVPDRFTGSGSGTDFTLTISSLQAEDVAVYYCLQYYITPYTFGQGTKLEIK
Solution: 6.7%

Exercise: Look up % parasite recognition for this binder: MGD23 (antibody) VH: QVQLQESGPGLVKPSGTLSLTCSVSGGSISSNKWWSWVRQSPGKGLEWIGEVYQTGITNYNPSLKGRVTMSVDKSKNQFSLRLTSVTAADTAVYYCATISQLRPQGDTEDLPRPSLSAEPGTVIPLGSHVTFVCRGPAGVETFRLERESRFTYNDTEDVSQASPSESEARFRIDSVSEGNAGPYRCLYYKARKWSDQSDYLELLVKGADVTWALPQSQLAPRACPQGELRISTDVFSMNVWGNGTTVTVSS VL: AVRVTQSPTSLSASTGDRVTITCRTSQYVGNYLDWYQQKPGKAPKLLIHGVSTLQNGVPSRFSGSASGTDFTLNITCLQSEDSATYYCQQYYTSPPDFGQGTRLEIK
Solution: 5.7%
